Quick reference: MIC of the listed items.
- Tested on: Salmonella enteritidis IID 604
- Assay comment: MIC, in vitro antibacterial activity (standard strains)
- Format: cell-based
- Particulars: Salmonella enterica; 10^6 cells/ml; Gram -; read-out: MIC
Express the reported value numerically, then name its unit.

Solved entries:
compound="C[C@H]1CN(c2c(F)cc3c(=O)c(C(=O)O)cn(C4CC4)c3c2F)C[C@H]1N.Cl (relative stereo) [Example 20]" measure=MIC value_measured="0.05 µg/mL"
compound="CNCC1CN(c2c(F)cc3c(=O)c(C(=O)O)cn(C4CC4)c3c2F)CC1C (stereo not drawn) [Example 13]" measure=MIC value_measured="0.1 µg/mL"
compound="C[C@H]1CN(c2cc3c(cc2F)c(=O)c(C(=O)O)cn3C2CC2)C[C@H]1N (relative stereo) [Example 33]" measure=MIC value_measured="0.05 µg/mL"
compound="C[C@H]1CN(c2c(F)cc3c(=O)c(C(=O)O)cn4c3c2OC[C@@H]4C)C[C@H]1N.Cl (mixture of isomers) [Example 31]" measure=MIC value_measured="0.1 µg/mL"
compound="CCn1cc(C(=O)O)c(=O)c2cc(F)c(N3C[C@@H](N)[C@@H](C)C3)c(Cl)c21 (relative stereo) [Example 23]" measure=MIC value_measured="0.1 µg/mL"
compound="C[C@H]1CN(c2c(F)cc3c(=O)c(C(=O)O)cn(CCF)c3c2Cl)C[C@H]1N (relative stereo) [Example 27]" measure=MIC value_measured="0.1 µg/mL"
compound="CCn1cc(C(=O)O)c(=O)c2cc(F)c(N3C[C@@H](N)[C@@H](C)C3)c(F)c21 (relative stereo) [Example 22]" measure=MIC value_measured="0.1 µg/mL"
compound="C[C@H]1CN(c2c(F)cc3c(=O)c(C(=O)O)cn(C4CC4)c3c2Cl)C[C@H]1N (relative stereo) [Example 16]" measure=MIC value_measured="0.025 µg/mL"

Asked: Reported MIC for Salmonella enteritidis IID 604, given C[C@H]1CN(c2c(F)cc3c(=O)c(C(=O)O)cn(C4CC4)c3c2Br)C[C@H]1N (relative stereo) [Example 21] ?
Given back: 0.025 µg/mL

Asked: Reported MIC for Salmonella enteritidis IID 604, given C[C@@H]1CN(c2c(F)cc3c(=O)c(C(=O)O)cn(C4CC4)c3c2Cl)C[C@H]1N (relative stereo) [Example 17] ?
Given back: 0.025 µg/mL

Asked: Reported MIC for Salmonella enteritidis IID 604, given CC1COc2c(N3C[C@@H](N)[C@@H](C)C3)c(F)cc3c(=O)c(C(=O)O)cn1c23.Cl (relative stereo) [Example 29] ?
Given back: 0.1 µg/mL

Asked: Reported MIC for Salmonella enteritidis IID 604, given CC1CN(c2c(F)cc3c(=O)c(C(=O)O)cn(C4CC4)c3c2Cl)CC1CN (stereo not drawn) [Example 1] ?
Given back: 0.05 µg/mL

---

- Tested on: Peptococcus magnus KY 017
- Assay comment: MIC, in vitro antibacterial activity (standard strains)
- Type: cell-based
- Particulars: Finegoldia magna, KY017; 10^6 cells/ml; Gram +; read-out: MIC
Measure: MIC (µg/mL)
Please respond with the number in µg/mL and leave the unit unwritten.

compound="C[C@H]1CN(c2c(F)cc3c(=O)c(C(=O)O)cn(CCF)c3c2F)C[C@H]1N (relative stereo)" tested_on="Peptococcus magnus KY 017" measure=MIC reading_unit=µg/mL value_measured=1.56

Asked: Need MIC, item CCn1cc(C(=O)O)c(=O)c2cc(F)c(N3C[C@@H](N)[C@@H](C)C3)c(F)c21 (relative stereo)
Given back: 1.56

Asked: Need MIC, item C[C@H]1CN(c2c(F)cc3c(=O)c(C(=O)O)cn(C4CC4)c3c2Cl)C[C@H]1N (relative stereo)
Given back: 0.05

Asked: Need MIC, item CC1CN(c2c(F)cc3c(=O)c(C(=O)O)cn(C4CC4)c3c2F)CC1N.Cl (centres unmarked)
Given back: 0.2

---

- Test system: E. limosum KYA 8486
- Assay comment: MIC, in vitro antibacterial activity (standard strains)
- Assay type: cell-based
- Particulars: Eubacterium limosum, KYA8486; 10^6 cells/ml; Gram +; read-out: MIC
Measure: MIC (µg/mL)
Please respond with the number in µg/mL and leave the unit unwritten.

Solved entries:
molecule="CC1CN(c2c(F)cc3c(=O)c(C(=O)O)cn(C4CC4)c3c2F)CC1N.Cl (stereo not shown)" reading_unit=µg/mL value_measured=0.78
molecule="C[C@@H]1CN(c2c(F)cc3c(=O)c(C(=O)O)cn(C4CC4)c3c2Br)C[C@H]1N (relative stereo)" reading_unit=µg/mL value_measured=0.1
molecule="C[C@H]1CN(c2c(F)cc3c(=O)c(C(=O)O)cn(CCF)c3c2Cl)C[C@H]1N (relative stereo)" reading_unit=µg/mL value_measured=6.25

Asked: Need MIC, item CCNCC1CN(c2c(F)cc3c(=O)c(C(=O)O)cn(C4CC4)c3c2Cl)CC1C (stereo not shown)
Given back: 0.78

---

- System: P. maltophilia GIFU 2491
- Assay comment: MIC, in vitro antibacterial activity (standard strains)
- Assay type: cell-based
- Particulars: Stenotrophomonas maltophilia, GIFU2491; 10^6 cells/ml; Gram -; read-out: MIC
Quick reference: MIC of the listed items.
Please respond with the number in µg/mL and leave the unit unwritten.

compound="C[C@H]1CN(c2c(F)cc3c(=O)c(C(=O)O)cn4c3c2OC[C@@H]4C)C[C@H]1N.Cl (mixture of isomers) [Example 31]" tested_on="P. maltophilia GIFU 2491" measure=MIC value_measured=0.78
compound="C[C@@H]1CN(c2c(F)cc3c(=O)c(C(=O)O)cn(C4CC4)c3c2Br)C[C@H]1N (relative stereo) [Example 32]" tested_on="P. maltophilia GIFU 2491" measure=MIC value_measured=0.05
compound="C[C@H]1CN(c2c(F)cc3c(=O)c(C(=O)O)cn(C4CC4)c3c2Cl)C[C@H]1N (relative stereo) [Example 16]" tested_on="P. maltophilia GIFU 2491" measure=MIC value_measured=0.05
compound="CCNCC1CN(c2c(F)cc3c(=O)c(C(=O)O)cn(C4CC4)c3c2Cl)CC1C (centres unmarked) [Example 14]" tested_on="P. maltophilia GIFU 2491" measure=MIC value_measured=0.39
compound="CC1CN(c2c(F)cc3c(=O)c(C(=O)O)cn(C4CC4)c3c2Cl)CC1CN (centres unmarked) [Example 1]" tested_on="P. maltophilia GIFU 2491" measure=MIC value_measured=0.1
compound="C[C@H]1CN(c2c(F)cc3c(=O)c(C(=O)O)cn(CCF)c3c2F)C[C@H]1N (relative stereo) [Example 25]" tested_on="P. maltophilia GIFU 2491" measure=MIC value_measured=1.56
compound="CC1CN(c2c(F)cc3c(=O)c(C(=O)O)cn(C4CC4)c3c2Cl)CC1N (centres unmarked) [Example 7]" tested_on="P. maltophilia GIFU 2491" measure=MIC value_measured=0.05
compound="C[C@H]1CN(c2c(F)cc3c(=O)c(C(=O)O)cn(C4CC4)c3c2Br)C[C@H]1N (relative stereo) [Example 21]" tested_on="P. maltophilia GIFU 2491" measure=MIC value_measured=0.05

Asked: Need MIC, item CCn1cc(C(=O)O)c(=O)c2cc(F)c(N3CCNCC3)cc21 [NFLX, norfloxacin, reference compound]
Given back: 6.25

Asked: Need MIC, item C[C@H]1CN(c2c(F)cc3c(=O)c(C(=O)O)cn(CCF)c3c2Cl)C[C@H]1N (relative stereo) [Example 27]
Given back: 1.56

Asked: Need MIC, item CCn1cc(C(=O)O)c(=O)c2cc(F)c(N3C[C@@H](N)[C@@H](C)C3)c(F)c21 (relative stereo) [Example 22]
Given back: 0.78

Asked: Need MIC, item C[C@H]1CN(c2cc3c(cc2F)c(=O)c(C(=O)O)cn3C2CC2)C[C@H]1N (relative stereo) [Example 33]
Given back: 0.39

Asked: Need MIC, item CCn1cc(C(=O)O)c(=O)c2cc(F)c(N3C[C@@H](N)[C@@H](C)C3)c(Cl)c21 (relative stereo) [Example 23]
Given back: 0.39

Asked: Need MIC, item CC1COc2c(N3C[C@@H](N)[C@@H](C)C3)c(F)cc3c(=O)c(C(=O)O)cn1c23.Cl (relative stereo) [Example 29]
Given back: 1.56

Asked: Need MIC, item CC1CN(c2c(F)cc3c(=O)c(C(=O)O)cn(C4CC4)c3c2F)CC1N.Cl (centres unmarked) [Example 11]
Given back: 0.1

Asked: Need MIC, item CCNCC1CN(c2c(F)cc3c(=O)c(C(=O)O)cn(C4CC4)c3c2F)CC1C (centres unmarked) [Example 15]
Given back: 0.39

Asked: Need MIC, item C[C@H]1CN(c2c(F)cc3c(=O)c(C(=O)O)cn(C4CC4)c3c2F)C[C@H]1N.Cl (relative stereo) [Example 20]
Given back: 0.39

Asked: Need MIC, item C[C@@H]1CN(c2c(F)cc3c(=O)c(C(=O)O)cn(C4CC4)c3c2Cl)C[C@H]1N (relative stereo) [Example 17]
Given back: 0.05

Asked: Need MIC, item CNCC1CN(c2c(F)cc3c(=O)c(C(=O)O)cn(C4CC4)c3c2F)CC1C (centres unmarked) [Example 13]
Given back: 0.39

Asked: Need MIC, item CNCC1CN(c2c(F)cc3c(=O)c(C(=O)O)cn(C4CC4)c3c2Cl)CC1C (centres unmarked) [Example 12]
Given back: 0.2
